# Test system: MOLT-4 leukemia
# method: NCI-60 one-dose screen, 48 h
# details: 10 µM unless noted
This is part of a sample that, as a whole, favours compounds with a hit. Of some 83,000 tested, about 20% had one in any assay. Activity calls are given as the source filed them. Rule for the calls: active = growth percent below 10; inactive = the rest.
Log the outcome using a class from active, inactive

See these solved cases before continuing.
>  <molecule>
[Cl][Ru].c1ccc(-c2cc(-c3ccccn3)nc(-c3ccccn3)c2)cc1.c1ccc(-c2ccnc3c2ccc2c(-c4ccccc4)ccnc23)cc1

>  <category-label>
active

$$$$
>  <molecule>
N/C(=N\c1nc2c(Cl)cc(Cl)cc2s1)C(Cl)(Cl)Cl

>  <category-label>
inactive

$$$$

Inquiry: Hey, what did the test say about CCCC(=O)NC(c1cccc(N(C)C)c1)c1cc(C)c2cccnc2c1O (stereo not drawn) ?
Reply text: inactive

Inquiry: Called result for N#Cc1c(-c2ccc(Cl)cc2)nc(SCc2ccc(F)cc2)nc1N1CCNCC1
Reply text: active

Inquiry: What outcome does the record of this test show for CCC/C=C/C=C/C(=O)N[C@@H](Cc1cc(F)cc(F)c1)C(=O)N[C@@H]1C(=O)N2CCC[C@H]2C(=O)N2CCCC[C@H]2C(=O)N[C@@H](C)C(=O)N2C[C@H](C)C[C@H]2C(=O)O[C@H]1C ?
Reply text: inactive

Inquiry: Could you kindly confirm the outcome this assay logged for NC(=O)c1cc(-c2ccc3ncnc(N4CCc5cc(F)c(Cl)cc54)c3c2)cnc1N ?
Reply text: active

Inquiry: What outcome does the record of this test show for CN(C)c1ccc(/C=C2\Cc3c(F)ccc(Br)c3C2=O)cc1 ?
Reply text: inactive

Inquiry: Would you mind telling me which call this test gave CCCSc1nc(Nc2ccc(/C(C)=N\NC(N)=S)cc2)c(C#N)c(-c2ccc(OC)cc2)n1 ?
Reply text: inactive

Inquiry: Hello, I am checking results. What call was entered for COc1ccc(/C=C/C(=O)c2ccc(NC(=O)CSc3nnc(-c4ccc5nc(-c6ccc(Cl)cc6)[nH]c5c4)o3)cc2)cc1 ?
Reply text: inactive

Inquiry: What is the recorded call for this molecule in the test? Cc1sc2nc(NCc3ccccc3Cl)[nH]c(=O)c2c1C
Reply text: inactive

Inquiry: Hey, what did the test say about COc1ccc(N/N=C/c2c(-c3ccc(S(C)(=O)=O)cc3)nc3ccccn23)cc1 ?
Reply text: inactive

Inquiry: Hello, I am checking results. What call was entered for C[C@@H](Nc1c(C#N)cnc2ccc(-c3cnc(N)nc3)cc12)c1ccccc1 ?
Reply text: active
